The following compounds are listed with their measured IC50 values.
Biological target: Plasma kallikrein (Homo sapiens)
Sequence (P03952 20-390 limits assumed): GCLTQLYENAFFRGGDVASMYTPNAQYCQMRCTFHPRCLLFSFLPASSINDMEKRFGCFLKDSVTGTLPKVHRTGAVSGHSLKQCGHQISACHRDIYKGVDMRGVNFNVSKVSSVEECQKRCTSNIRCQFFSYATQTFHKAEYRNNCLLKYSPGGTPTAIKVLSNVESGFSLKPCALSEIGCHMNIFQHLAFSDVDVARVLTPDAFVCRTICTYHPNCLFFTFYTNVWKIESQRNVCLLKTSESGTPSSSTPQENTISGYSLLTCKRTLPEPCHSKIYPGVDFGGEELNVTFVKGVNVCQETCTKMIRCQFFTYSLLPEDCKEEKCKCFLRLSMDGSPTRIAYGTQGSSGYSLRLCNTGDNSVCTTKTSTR
Sequence (P03952 391-638 limits assumed): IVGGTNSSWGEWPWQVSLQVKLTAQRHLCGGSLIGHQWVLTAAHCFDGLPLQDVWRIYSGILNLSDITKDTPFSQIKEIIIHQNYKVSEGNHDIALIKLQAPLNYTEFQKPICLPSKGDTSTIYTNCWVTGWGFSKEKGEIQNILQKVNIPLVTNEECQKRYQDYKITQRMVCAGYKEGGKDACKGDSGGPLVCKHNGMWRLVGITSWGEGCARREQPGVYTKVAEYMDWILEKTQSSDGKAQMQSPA
Assay: In Vitro Enzyme Inhibition Assay: The ability of the compounds disclosed herein to inhibit human plasma kallikrein activity was quantified according to the procedures below.A 10 mM solution of the test compound was made in DMSO. […] A control tube containing only DMSO is included. […] 50 μL was removed from this mixture and placed into duplicate wells on a Microfluor 1Black U-bottom microtiter plate (Thermo Scientific). This plate was incubated for 5 minutes at 37° C. To each well, 50 μL of pre-warmed 2×PFR-AMC was added to start the enzymatic reaction. Cleavage of PFR-AMC was monitored in a Biotek Synergy H4 reader set at 37° C. Readings are taken every 43 seconds for 1 hour.

Cpd smiles | IC50
N#Cc1ccc2cc(Cc3cc(C(=O)NCc4cc5c(Cl)c[nH]c5cc4F)ccn3)ccc2n1 | < 100 nM

Now, please, on to the next compound.
## Task GET /values?readout=IC50&system=Plasma kallikrein (Homo sapiens)&item= Cc1nc(N)ccc1CNC(=O)c1ccnc(Cc2cc(C#N)c3ncc(Cl)cc3c2)c1
## Result < 100 nM

Source of measurements: ChEMBL document CHEMBL5726081
